Molecular target: E3 ubiquitin-protein ligase RBX1 (Homo sapiens) + Cullin-1 (Homo sapiens) (UniProt P62877+Q13616)
Sequence (P62877 whole entry, looked up): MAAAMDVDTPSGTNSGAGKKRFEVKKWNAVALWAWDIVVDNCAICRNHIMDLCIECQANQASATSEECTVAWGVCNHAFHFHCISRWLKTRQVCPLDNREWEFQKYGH
Sequence (Q13616 whole entry, looked up): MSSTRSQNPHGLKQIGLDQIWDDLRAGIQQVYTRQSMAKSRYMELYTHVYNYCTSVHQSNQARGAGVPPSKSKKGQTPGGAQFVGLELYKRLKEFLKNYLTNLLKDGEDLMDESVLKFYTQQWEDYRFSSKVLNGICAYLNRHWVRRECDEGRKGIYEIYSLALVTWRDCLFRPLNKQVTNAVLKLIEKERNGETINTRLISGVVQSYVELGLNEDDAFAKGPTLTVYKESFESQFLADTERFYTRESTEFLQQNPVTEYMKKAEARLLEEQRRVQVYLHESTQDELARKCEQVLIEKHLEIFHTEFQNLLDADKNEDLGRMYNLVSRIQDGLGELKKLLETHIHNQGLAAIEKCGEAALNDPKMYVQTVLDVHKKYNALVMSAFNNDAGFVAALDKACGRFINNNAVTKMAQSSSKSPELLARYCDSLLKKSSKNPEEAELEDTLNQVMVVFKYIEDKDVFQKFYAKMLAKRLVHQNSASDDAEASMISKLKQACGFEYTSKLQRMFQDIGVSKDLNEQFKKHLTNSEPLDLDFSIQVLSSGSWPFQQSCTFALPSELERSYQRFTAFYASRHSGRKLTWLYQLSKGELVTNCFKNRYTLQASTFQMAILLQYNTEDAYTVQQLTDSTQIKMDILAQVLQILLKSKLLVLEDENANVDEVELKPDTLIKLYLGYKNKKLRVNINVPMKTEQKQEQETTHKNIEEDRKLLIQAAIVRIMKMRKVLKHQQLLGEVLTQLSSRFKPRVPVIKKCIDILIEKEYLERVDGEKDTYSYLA
Assay: inhibitors of human ROC1-CUL1 ubiquitin ligase activity (AID 1347404)
Settings: in vitro K48 di-Ub FRET, acceptor:donor ratio, 45 min; at 10 µM; stronger effect = higher value
Among all 140,000 compounds or so, about 860 (0.61%) were called active. This excerpt belongs to a sample that is enriched for actives.
measuredParameter: inhibition (%)
Report the value in % with no unit label.

Example results:
>  <compound>
CN(C)c1ccc(/C=C2\SC(=N)N(c3nccs3)C2=O)cc1

>  <measuredParameter>
inhibition

>  <endpointResult>
-5.77

$$$$
>  <compound>
Cc1ccc(OC(=O)c2ccc(Br)cc2Br)c(C)c1

>  <measuredParameter>
inhibition

>  <endpointResult>
5.25

$$$$
>  <compound>
CN(C)/C=C/c1c(C#N)c(=O)oc2ccccc12

>  <measuredParameter>
inhibition

>  <endpointResult>
9.69

$$$$
>  <compound>
O=C(O)CSCC(=O)Nc1nccs1

>  <measuredParameter>
inhibition

>  <endpointResult>
-17.6

$$$$
>  <compound>
Cc1ccccc1OC(C)C(=O)Nc1nccs1 (stereo not drawn)

>  <measuredParameter>
inhibition

>  <endpointResult>
0.702

$$$$

Prompt: Can you share its inhibition? I mean this compound: `Cc1cnc(Sc2nccn2C)c([N+](=O)[O-])c1`
Response: -1.03

Prompt: For the compound `CCN=C1CC=C(Br)C=C(C(=O)/C=C/c2ccccc2OC)C1=O` , what inhibition is on record?
Response: 101

Prompt: Find the recorded inhibition belonging to `Cc1cccc(C(=O)Nc2ccc(C)cc2C)c1` and report it.
Response: -1.04

Prompt: Item `Cc1noc(C)c1C(=O)CCCCCCCCCCCCCCC(=O)O` has what recorded inhibition?
Response: -8.93

Prompt: Please report the recorded inhibition for `COc1cccc(CC2(CO)CCN(C(=O)c3cnn(C(C)C)c3)CC2)c1` .
Response: 4.94

Prompt: Given the compound `Cc1ccc(N2C(=O)/C(=C\c3ccc(Cl)cc3)SC2=S)cc1` , what is its reported inhibition?
Response: 8.97

Prompt: // query inhibition value for entry CC1=Nc2nnnn2C(c2ccc(Br)cc2)C1C(=O)Nc1ccccc1 (stereo not drawn)
Response: 0.6

Prompt: Query (compound): `COc1ccc(F)c(-c2nc(CN(C)Cc3nonc3C)c(C)o2)c1` ; field requested: inhibition
Response: 3.31

Prompt: Which inhibition value belongs to `Cc1ccc(NC(=O)c2c(N)sc3c2CCC3)c(C)c1` ?
Response: 43.1

Prompt: Quick one: inhibition for `COc1ccc(/C=C/C(=O)c2cc3ccccc3oc2=O)c(OC)c1` ?
Response: -5.94

Prompt: Can you look up the measured inhibition of `O=C(COC(=O)c1cc(Cl)c(Cl)cc1C(=O)OCC(=O)c1ccccc1)c1ccccc1` for me?
Response: 7.68

Prompt: I would be grateful if you could share the reported inhibition for `CN(C)S(=O)(=O)N1CCC(C(=O)Nc2ccc(Cl)c(C(F)(F)F)c2)CC1` .
Response: 6.61

Prompt: Could you share which inhibition value was measured for `COCCCNC(=O)c1ccc2c(c1N)C(=O)c1ccccc1C2=O` ?
Response: 5.03

Prompt: What inhibition value was documented for this compound, `Nc1scc2c1c(=O)oc1ccccc12` ?
Response: 57

Prompt: I would be grateful if you could share the reported inhibition for CN1CCC(N2CCCC2C(=O)Nc2ccc(-c3cccc(F)c3)cc2)CC1 (stereo not drawn) .
Response: -3.33

Prompt: I'd like to know its inhibition. The compound in question is `O=C(Nc1ccccc1Cl)c1cc(-c2ccc(Cl)s2)nc2ccccc12`
Response: -7.97

Prompt: Fill in the blank: the reported inhibition of `Cc1ccc2nc(CNC(=O)Cn3nnnc3CN3CCC(C)CC3)cn2c1` is ____.
Response: -3.66

Prompt: I'd like to know its inhibition. The compound in question is `Nc1c(S(=O)(=O)O)cc(Nc2ccc(-c3ccc(Nc4cc(S(=O)(=O)O)c(N)c5c4C(=O)c4ccccc4C5=O)cc3)cc2)c2c1C(=O)c1ccccc1C2=O`
Response: 94.8

Entry source: PubChem BioAssay AID1347404
